Biological target: vitronectin
Sequence (P04004 20-478): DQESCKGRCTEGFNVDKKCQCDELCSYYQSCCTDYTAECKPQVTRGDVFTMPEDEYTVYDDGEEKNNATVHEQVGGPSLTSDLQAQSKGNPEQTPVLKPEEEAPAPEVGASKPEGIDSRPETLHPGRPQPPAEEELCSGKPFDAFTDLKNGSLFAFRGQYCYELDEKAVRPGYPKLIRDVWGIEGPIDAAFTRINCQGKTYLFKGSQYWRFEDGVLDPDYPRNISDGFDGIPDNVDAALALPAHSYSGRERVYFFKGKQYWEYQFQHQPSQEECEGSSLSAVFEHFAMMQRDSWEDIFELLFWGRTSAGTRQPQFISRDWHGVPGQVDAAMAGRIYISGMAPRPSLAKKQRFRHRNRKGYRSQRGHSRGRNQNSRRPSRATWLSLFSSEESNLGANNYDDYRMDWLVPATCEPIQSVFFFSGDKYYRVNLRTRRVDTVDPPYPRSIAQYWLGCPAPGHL
Assay: ELISA; matrix component (0.25 ug/well in 0.1 M Na2CO3, overnight 4 C) immobilised on polystyrene plates; Emp forms 0-1.5 uM added for 1 h at RT, PBST washes; detected with polyclonal anti-Emp IgG and AP-conjugated anti-rabbit IgG; KD from steady-state curves, one-site binding model
Documented pKd across a set of binders
// returns pKd (minus log10 of molar concentration), number only

| Binder | pKd |
| --- | --- |
| Emp2+3 (combination of Emp2 and Emp3; N-truncated Emp) (domain or fragment, limits worked out from these positions and count on the precursor; source: E. coli (TG1 transformants, plasmid pQemp2 + 3), purified (Ni-NTA in 8 M urea, solubilized by stepwise dialysis)) YKEINNRVNVATNNPASQQVDKHFVAKGPEVNRFITQNKVNHHFITTQTHYKKVITSYKSTHVHKHVNHAKDSINKHFIVKPSESPRYTHPSQSLIIKHHFAVPGYHAHKFVTPGHASIKINHFCVVPQINSFKVIPPYGHNSHRMHVPSFQNNTTATHQNAKVNKAYDYKYFYSYKVVKGVKKYFSFSQSNGYKIGKPSLNIKNVNYQYAVPSYSPTHYVPEFKGSLPAPRV | 6.70 |

Reported pKd ( Emp3 (C-terminal fragment of Emp) (domain or fragment, primers EmpFor3UA (+622) and EmpRev3UA (+1024, holds the stop codon) relative to ATG; limits worked out from these positions and count on the precursor; source: E. coli (TG1 transformants, plasmid pQemp3), purified (Ni-NTA in 8 M urea, solubilized by stepwise dialysis)) FAVPGYHAHKFVTPGHASIKINHFCVVPQINSFKVIPPYGHNSHRMHVPSFQNNTTATHQNAKVNKAYDYKYFYSYKVVKGVKKYFSFSQSNGYKIGKPSLNIKNVNYQYAVPSYSPTHYVPEFKGSLPAPRV ) = 6.35
